Tested on: CEM cells HIV-1 protection, formazan growth assay
Test: NCI AIDS Antiviral Assay;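 active = compounds giving half or more protection of infected cells from virus-caused growth loss, again on retest; inactive = the rest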
Where a SMILES comes first, the peptide text is derived from it.
Classes used: active, inactive

molecule	cat
O=C(Cc1ccccc1)N[C@@H]1COC(=O)[C@@H]2CCCN2C(=O)[C@@H]2CCCN2C1=O (HELM PEPTIDE1{[O=C(Cc1ccccc1)[*:2]].[O=C([C@@H](CO[*:3])N[*:1])[*:2]].P.P}$PEPTIDE1,PEPTIDE1,2:R3-4:R2$$$V2.0)	inactive
CCCCCCCCCCCCCCCC(=O)Nc1ccn(C2CC(OP(=O)(O)OCC3OC(n4cc(C)c(=O)[nH]c4=O)CC3N=[N+]=[N-])C(CO)O2)c(=O)n1 (centres undefined)	active
CCOC(=O)N(c1ccccc1)c1cc(=O)n2ccccc2n1	inactive
Nc1nc([O-])c2c(n1)[n+](C1OC(CO)C(O)C1O)cn2CCO (centres undefined)	inactive
